FYI, the data here is from patent US20210246115A1.

Data export: MIC values recorded with A. baumannii ATCC 17978.
Structures can show the parent of a compound that is named as a salt.
Measure: MIC

>  <Compound>
N[C@H]1CC[C@H](NC2CCC(c3cn(CC4CCCCC4)c4ccc(Br)cc34)CC2)CC1 (single isomer, unassigned) [Compound 266, hydrochloride salt]

>  <Target entity>
A. baumannii ATCC 17978

>  <Measurement>
8 µg/mL

$$$$
>  <Compound>
Cc1ccccc1C(CCNC1CCC(N)CC1)c1cn(CC2CCCCC2)c2ccccc12 (stereo not drawn) [Compound 186, hydrochloride salt]

>  <Target entity>
A. baumannii ATCC 17978

>  <Measurement>
4 µg/mL

$$$$
>  <Compound>
Cc1cccc(C(CC(=O)Nc2ccc(CN)cc2)c2cn(CC3CCCCC3)c3ccccc23)c1.Cl (stereo not drawn)

>  <Target entity>
A. baumannii ATCC 17978

>  <Measurement>
> 128 µg/mL

$$$$

###

Test system: Enterococcus faecalis (ATCC29212)
Test: MIC, broth microdilution (CLSI), Enterococcus faecalis
Assay type: cell-based
Details: ATCC29212, Table XIV A. Gram-positive bacteria, read-out: E. faecalis ATCC 29212 MIC
Where a name gives a salt, the structure may show the parent alone.
# key: entry, value: MIC

>  <Compound>
N[C@H]1CC[C@H](NCCc2cn(CC3CCCCC3)c3ccc(-c4cccc(OC(F)(F)F)c4)cc23)CC1 [Compound 274, hydrochloride salt]

>  <Unit annotation>
µg/mL

>  <MIC>
2

$$$$
>  <Compound>
Cc1cccc(-c2ccc3c(c2)c(CCN[C@H]2CC[C@H](N)CC2)cn3CC2CCCCC2)c1 [Compound 225, hydrochloride salt]

>  <Unit annotation>
µg/mL

>  <MIC>
2

$$$$
>  <Compound>
Cc1cccc(C(CCNC2CCC(N)CC2)c2cn(CC3CCCCCC3)c3ccccc23)c1 (stereo not drawn) [Compound 245, hydrochloride salt]

>  <Unit annotation>
µg/mL

>  <MIC>
4

$$$$
>  <Compound>
N[C@H]1CC[C@H](NC2CCC(c3cn(CC4CCCCC4)c4ccc(Br)cc34)CC2)CC1 (single isomer, unassigned) [Compound 266, hydrochloride salt]

>  <Unit annotation>
µg/mL

>  <MIC>
2

$$$$
>  <Compound>
Cc1cccc(CC(CC(=O)N[C@H]2CC[C@H](N)CC2)c2cn(CC3CCCCC3)c3ccccc23)c1.Cl (stereo partly drawn)

>  <Unit annotation>
µg/mL

>  <MIC>
8

$$$$
>  <Compound>
Cc1cccc(C(CCNC2CCNCC2)c2cn(CC3CCCCC3)c3ccc(Br)cc23)c1.Cl (stereo not drawn)

>  <Unit annotation>
µg/mL

>  <MIC>
2

$$$$
>  <Compound>
Cc1cccc(C(CCN[C@H]2CC[C@H](N)CC2)c2cn(CC3CCCCC3)c3ccccc23)c1 (stereo partly drawn) [Compound 199, hydrochloride]

>  <Unit annotation>
µg/mL

>  <MIC>
8

$$$$
>  <Compound>
Cc1cccc(C(CCNC2CCCCC2)c2cn(CC3CCCCC3)c3ccccc23)c1.Cl (stereo not drawn)

>  <Unit annotation>
µg/mL

>  <MIC>
2

$$$$
>  <Compound>
Cc1cccc(C(CCNCCCN)c2cn(C3CCCCC3)c3cc(Br)ccc23)c1.Cl.Cl (stereo not drawn)

>  <Unit annotation>
µg/mL

>  <MIC>
2

$$$$
>  <Compound>
Cc1cccc(C(CCNC2CCNCC2)c2cn(CC3CCCCC3)c3ccccc23)c1.Cl (stereo not drawn)

>  <Unit annotation>
µg/mL

>  <MIC>
4

$$$$
>  <Compound>
NCCCNCCC(c1cccc(OC(F)(F)F)c1)c1cn(C2CCCCC2)c2ccccc12 (stereo not drawn)

>  <Unit annotation>
µg/mL

>  <MIC>
2

$$$$
>  <Compound>
Cc1cccc(-c2ccc3c(c2)c(C2CCCC(NCCCN)C2)cn3C2CCCCC2)c1 (stereo not drawn)

>  <Unit annotation>
µg/mL

>  <MIC>
2

$$$$
>  <Compound>
COc1ccccc1-c1ccc2c(c1)c(CCCN[C@H]1CC[C@H](N)CC1)cn2CC1CCCCC1 [Compound 237, hydrochloride salt]

>  <Unit annotation>
µg/mL

>  <MIC>
2

$$$$
>  <Compound>
NC1CCC(NCCC(c2cccc(OC(F)(F)F)c2)c2cn(CC3CCCCC3)c3ccccc23)CC1 (stereo not drawn) [Compound 173, hydrochloride salt]

>  <Unit annotation>
µg/mL

>  <MIC>
2

$$$$
>  <Compound>
Cc1cccc(C(CCNC2CCC(N)CC2)c2cn(CC34CC5CC(CC(C5)C3)C4)c3ccccc23)c1 (stereo not drawn) [Compound 232, hydrochloride salt]

>  <Unit annotation>
µg/mL

>  <MIC>
4

$$$$
>  <Compound>
NC1CCC(NCCC(c2cccc(Cl)c2)c2cn(CC3CCCCC3)c3ccccc23)CC1 (stereo not drawn) [Compound 170, hydrochloride salt]

>  <Unit annotation>
µg/mL

>  <MIC>
2

$$$$
>  <Compound>
Cc1cccc(-c2ccc3c(c2)c(CCCNCC(O)CN)cn3C2CCCCC2)c1 (stereo not drawn)

>  <Unit annotation>
µg/mL

>  <MIC>
2

$$$$
>  <Compound>
Cl.Cl.NCCCNCCC(c1cn(C2CCCCC2)c2ccccc12)C1CCCCC1 (stereo not drawn)

>  <Unit annotation>
µg/mL

>  <MIC>
4

$$$$
